- assayed_system: CaSla1-D1-D2
- method_description: SPOT peptide array binding signal intensity (averaged, normalized) (arbitrary units (background-subtracted, floor 0; scale differs between SH3 domains)); higher = stronger binding of the SH3 domain to the peptide
property_measured: SPOT peptide array binding signal intensity
Format: numeric value only, no unit, no commentary.

WRPRIVPILPYITRL = 6

IN: What measured SPOT peptide array binding signal intensity goes with `RKLRTVPGVPLIHLT` ?
OUT: 20

IN: What measured SPOT peptide array binding signal intensity goes with `APKREAPKPPANTSP` ?
OUT: 106

// provenance: the supplement of paper PMC4466140
